src = ChEMBL document CHEMBL5291721

Could you please report measured AC50 for the items listed next?
Biological target: Estrogen receptor (Homo sapiens, UniProt P03372); note: assay procedure not described here
Sequence (P03372 whole entry): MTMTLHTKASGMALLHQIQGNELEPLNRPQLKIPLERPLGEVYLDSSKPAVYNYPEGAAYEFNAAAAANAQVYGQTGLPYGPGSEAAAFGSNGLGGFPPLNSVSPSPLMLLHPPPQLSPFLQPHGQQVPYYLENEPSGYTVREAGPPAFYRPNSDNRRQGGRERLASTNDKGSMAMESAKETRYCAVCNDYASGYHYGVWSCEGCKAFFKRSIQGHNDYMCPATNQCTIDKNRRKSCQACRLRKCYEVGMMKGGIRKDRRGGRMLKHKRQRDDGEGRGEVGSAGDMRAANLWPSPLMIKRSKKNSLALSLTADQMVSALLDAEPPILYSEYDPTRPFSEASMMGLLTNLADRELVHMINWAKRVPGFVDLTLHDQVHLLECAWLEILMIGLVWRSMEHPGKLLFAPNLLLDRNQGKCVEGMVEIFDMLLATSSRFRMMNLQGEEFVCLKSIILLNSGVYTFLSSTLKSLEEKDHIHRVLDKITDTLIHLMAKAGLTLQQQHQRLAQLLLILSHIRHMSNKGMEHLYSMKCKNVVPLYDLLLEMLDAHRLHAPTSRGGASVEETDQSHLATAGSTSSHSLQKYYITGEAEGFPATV
Where a SMILES comes first, the peptide text is derived from it. [ ]: non-standard residue; d: D form. pGlu = O=C1CC[C@@H](C(=O)O)N1; Thz = O=C(O)[C@@H]1CSCN1

# count of solved cases: 3
>>> recorded_result("COc1ccccc1OC1(C)OC(=O)c2ccccc2O1 (stereo not given) [GUAIMESAL]")
"> 30 µM"
>>> recorded_result("O=C1CC[C@@H](C(=O)N2CSC[C@H]2C(=O)O)N1 [PIDOTIMOD] ([pGlu]-[Thz]-OH)")
"> 30 µM"
>>> recorded_result("O=C(O)COCCN1CCN(C(c2ccccc2)c2ccc(Cl)cc2)CC1 (stereo not given) [CETIRIZINE]")
"> 30 µM"

Here are 7 compounds. What values of AC50 were reported for them?
1. O=S1(=O)CCN(CN2CCS(=O)(=O)NC2)CN1 [TAUROLIDINE]
2. CO/N=C(\C(=O)N[C@@H]1C(=O)N2C(C(=O)O)=CCS[C@H]12)c1csc(N)n1 [CEFTIZOXIME]
3. CCc1nc(N)nc(N)c1-c1ccc(Cl)cc1 [PYRIMETHAMINE]
4. CC1=C(C(=O)OC(C)C)C(c2cccc([N+](=O)[O-])c2)C(C(=O)OC2CN(C(c3ccccc3)c3ccccc3)C2)=C(N)N1 (stereo not given) [AZELNIDIPINE]
5. C=C1c2cccc(O)c2C(=O)C2=C(O)[C@]3(O)C(=O)C(C(N)=O)=C(O)[C@@H](N(C)C)[C@@H]3[C@@H](O)[C@H]12 [METHACYCLINE]
6. COc1cc(C(=O)NS(=O)(=O)c2ccccc2C)ccc1Cc1cn(C)c2ccc(NC(=O)OC3CCCC3)cc12 [ZAFIRLUKAST]
7. COc1ccc(C2C(=O)c3ccccc3C2=O)cc1 [ANISINDIONE]

Result:
["> 30 µM", "> 30 µM", "> 10 µM", "> 3 µM", "> 30 µM", "> 30 µM", "> 30 µM"]

Look up AC50 for the entries below, preserving their order.
1. CN(Cc1cnc2nc(N)nc(N)c2n1)c1ccc(C(=O)N[C@@H](CCC(=O)O)C(=O)O)cc1 [METHOTREXATE]
2. Cc1ccc(C)c(OCCCC(C)(C)C(=O)O)c1 [GEMFIBROZIL]
3. CCOC(=O)c1ncn2c1CN(C)C(=O)c1cc(F)ccc1-2 [FLUMAZENIL]

Result:
> 30 µM
> 30 µM
> 30 µM

---

Consider the following compounds; for each one, report its AC50.
Molecular target: Progesterone receptor (Homo sapiens, UniProt P06401); note: assay procedure not described here
Sequence (P06401 whole entry): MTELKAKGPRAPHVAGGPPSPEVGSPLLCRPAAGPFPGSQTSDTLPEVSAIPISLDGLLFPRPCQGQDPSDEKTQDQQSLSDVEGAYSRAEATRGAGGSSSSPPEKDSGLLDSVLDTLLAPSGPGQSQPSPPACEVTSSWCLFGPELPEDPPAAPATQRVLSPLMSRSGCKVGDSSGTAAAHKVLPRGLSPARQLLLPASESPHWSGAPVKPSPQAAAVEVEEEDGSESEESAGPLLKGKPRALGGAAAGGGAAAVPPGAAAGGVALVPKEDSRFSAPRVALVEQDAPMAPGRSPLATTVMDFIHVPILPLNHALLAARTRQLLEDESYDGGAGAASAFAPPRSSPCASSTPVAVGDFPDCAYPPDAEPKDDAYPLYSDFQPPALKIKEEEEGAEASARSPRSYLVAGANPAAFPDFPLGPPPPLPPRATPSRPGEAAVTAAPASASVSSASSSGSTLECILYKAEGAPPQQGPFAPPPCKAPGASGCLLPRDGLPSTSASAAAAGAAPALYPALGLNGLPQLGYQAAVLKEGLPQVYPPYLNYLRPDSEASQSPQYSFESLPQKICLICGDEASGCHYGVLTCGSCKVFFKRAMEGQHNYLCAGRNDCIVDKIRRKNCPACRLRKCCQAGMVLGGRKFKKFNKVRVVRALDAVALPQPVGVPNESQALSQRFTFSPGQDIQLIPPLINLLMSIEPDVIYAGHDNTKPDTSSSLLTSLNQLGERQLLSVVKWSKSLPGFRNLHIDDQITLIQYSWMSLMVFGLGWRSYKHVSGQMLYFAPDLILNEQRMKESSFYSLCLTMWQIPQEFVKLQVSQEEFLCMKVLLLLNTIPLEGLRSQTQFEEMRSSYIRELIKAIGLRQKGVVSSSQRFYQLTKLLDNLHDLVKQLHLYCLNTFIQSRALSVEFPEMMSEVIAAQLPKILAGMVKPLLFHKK
Type: functional

>>> recorded_result("COc1cc(C(=O)NS(=O)(=O)c2ccccc2C)ccc1Cc1cn(C)c2ccc(NC(=O)OC3CCCC3)cc12 [ZAFIRLUKAST]")
"11.2 µM"
>>> recorded_result("CN(C)C/C=C/C(=O)Nc1cc2c(Nc3ccc(F)c(Cl)c3)ncnc2cc1O[C@H]1CCOC1 [AFATINIB]")
"> 30 µM"
>>> recorded_result("C/C=C(/C(=C/C)c1ccc(O)cc1)c1ccc(O)cc1 [DIENESTROL]")
"> 30 µM"
>>> recorded_result("CCCC(C)(COC(N)=O)COC(N)=O [MEPROBAMATE]")
"> 10 µM"

Record AC50 per entry; entries follow.
1. CN(C)Cc1nnc2n1-c1ccc(Cl)cc1C(c1ccccc1)=NC2 [ADINAZOLAM]
2. CO/N=C(\C(=O)N[C@@H]1C(=O)N2C(C(=O)O)=CCS[C@H]12)c1csc(N)n1 [CEFTIZOXIME]
3. NC(=O)NC(=O)Cc1ccccc1 [PHENACEMIDE]
4. CC1=C(C(=O)OC(C)C)C(c2cccc([N+](=O)[O-])c2)C(C(=O)OC2CN(C(c3ccccc3)c3ccccc3)C2)=C(N)N1 (stereo not drawn) [AZELNIDIPINE]

Result:
> 10 µM
26 µM
> 10 µM
> 3 µM

---

So I've got a bunch of compounds here, and I need their AC50 values.
Molecular target: cGMP-inhibited 3',5'-cyclic phosphodiesterase 3A (Homo sapiens); note: assay procedure not described here
Sequence (Q14432 whole entry): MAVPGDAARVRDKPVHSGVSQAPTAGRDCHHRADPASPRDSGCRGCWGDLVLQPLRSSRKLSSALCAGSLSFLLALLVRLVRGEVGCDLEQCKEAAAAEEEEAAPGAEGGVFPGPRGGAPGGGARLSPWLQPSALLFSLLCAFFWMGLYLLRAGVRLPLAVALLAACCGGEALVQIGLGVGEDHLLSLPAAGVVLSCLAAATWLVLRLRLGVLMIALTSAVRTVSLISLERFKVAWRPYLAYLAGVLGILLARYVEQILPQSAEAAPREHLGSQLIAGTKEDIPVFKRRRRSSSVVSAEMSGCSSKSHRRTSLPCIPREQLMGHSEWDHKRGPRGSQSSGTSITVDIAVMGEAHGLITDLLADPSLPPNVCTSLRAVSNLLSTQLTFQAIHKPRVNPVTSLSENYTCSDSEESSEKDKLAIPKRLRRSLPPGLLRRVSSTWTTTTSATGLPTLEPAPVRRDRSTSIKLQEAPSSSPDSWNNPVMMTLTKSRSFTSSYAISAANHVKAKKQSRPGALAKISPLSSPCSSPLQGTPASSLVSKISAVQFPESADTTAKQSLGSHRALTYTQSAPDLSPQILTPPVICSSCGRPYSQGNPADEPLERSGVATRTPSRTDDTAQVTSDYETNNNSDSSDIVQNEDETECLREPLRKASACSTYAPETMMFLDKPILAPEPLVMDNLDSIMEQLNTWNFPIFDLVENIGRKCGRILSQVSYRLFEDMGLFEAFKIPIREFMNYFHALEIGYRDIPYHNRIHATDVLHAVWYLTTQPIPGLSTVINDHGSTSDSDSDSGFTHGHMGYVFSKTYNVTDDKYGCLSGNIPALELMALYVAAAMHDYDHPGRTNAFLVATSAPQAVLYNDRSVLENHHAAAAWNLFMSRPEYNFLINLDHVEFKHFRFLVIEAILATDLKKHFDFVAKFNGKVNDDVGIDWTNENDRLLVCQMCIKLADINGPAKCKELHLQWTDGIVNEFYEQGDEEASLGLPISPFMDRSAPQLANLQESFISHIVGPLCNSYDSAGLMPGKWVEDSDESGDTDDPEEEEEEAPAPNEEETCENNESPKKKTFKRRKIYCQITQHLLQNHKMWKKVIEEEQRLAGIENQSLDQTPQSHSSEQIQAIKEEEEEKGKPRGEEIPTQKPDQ
Type: functional

Solved entries (count: 3):
>>> recorded_result("O=C(O)COCCN1CCN(C(c2ccccc2)c2ccc(Cl)cc2)CC1 (centres undefined)")
"> 30 µM"
>>> recorded_result("O=C(O)[C@@H]1C[C@@H](O)CN1")
"> 30 µM"
>>> recorded_result("NC(=O)[C@@H]1CC[C@@H]2CN1C(=O)N2OS(=O)(=O)O")
"> 30 µM"

Below are some compounds; for each one, tell me its AC50.
1. COc1cc(C)c2c(Oc3cccc(C(F)(F)F)c3)c(OC)cc(NC(C)CCCN)c2n1 (centres undefined)
2. CC(O)(P(=O)(O)O)P(=O)(O)O

Result:
1: > 30 µM; 2: > 30 µM

---

Biological target: Muscarinic acetylcholine receptor M2 (Homo sapiens, UniProt P08172); note: assay procedure not described here
Sequence (P08172 whole entry): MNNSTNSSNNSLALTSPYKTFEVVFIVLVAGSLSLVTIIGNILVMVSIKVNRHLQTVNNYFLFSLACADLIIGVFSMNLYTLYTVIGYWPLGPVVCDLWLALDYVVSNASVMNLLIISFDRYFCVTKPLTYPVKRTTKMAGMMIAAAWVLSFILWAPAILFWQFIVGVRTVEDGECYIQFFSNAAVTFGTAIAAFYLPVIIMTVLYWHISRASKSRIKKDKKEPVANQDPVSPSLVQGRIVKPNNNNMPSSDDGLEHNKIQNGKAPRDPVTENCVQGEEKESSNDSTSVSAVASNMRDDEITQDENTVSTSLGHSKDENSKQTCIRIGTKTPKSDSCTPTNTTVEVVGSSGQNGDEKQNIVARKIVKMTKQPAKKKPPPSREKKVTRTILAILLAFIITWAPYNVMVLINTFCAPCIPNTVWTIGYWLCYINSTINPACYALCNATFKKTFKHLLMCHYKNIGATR
Type: functional, cell-based
MEASUREMENT_TYPE: AC50

>>> recorded_result("COc1cc(N)c(Cl)cc1C(=O)NC1CCN(CCCOc2ccc(F)cc2)CC1OC (stereo not given) [CISAPRIDE]")
"> 10 µM"
>>> recorded_result("Clc1ccc(CCC(Cn2ccnc2)Sc2c(Cl)cccc2Cl)cc1 (stereo not given)")
"> 30 µM"
>>> recorded_result("O=c1c(O)c(-c2ccc(O)c(O)c2)oc2cc(O)cc(O)c12")
"10 µM"

// each molecule listed below needs its AC50
1. NNC(=O)c1ccncc1
2. O=C(O)c1ccc(NC(=O)[C@H](Cc2ccc(O)cc2)NC(=O)c2ccccc2)cc1 [BENTIROMIDE]
3. CCN1CC(CCN2CCOCC2)C(c2ccccc2)(c2ccccc2)C1=O (stereo not given)
4. CC(CN1c2ccccc2Sc2ccccc21)N(C)C (stereo not given)
5. CCOC(=O)c1ccc(N)cc1
6. CCOC(=O)c1ccc(C#Cc2ccc3c(c2)C(C)(C)CCS3)nc1
7. CN1CCN=C(c2ccccc2)c2cc(Cl)ccc21

Result:
1: > 30 µM; 2: > 10 µM; 3: > 30 µM; 4: 0.322 µM; 5: > 10 µM; 6: > 10 µM; 7: > 30 µM

For every listed record, write down its AC50.
1. CCC(=O)O[C@]1(C(=O)CCl)[C@@H](C)C[C@H]2[C@@H]3CCC4=CC(=O)C=C[C@]4(C)[C@@]3(F)[C@@H](O)C[C@@]21C [CLOBETASOL PROPIONATE]
2. Cc1cc(C2CCCCC2)n(O)c(=O)c1
3. CC(C)(C)NCC(O)c1ccccc1Cl (stereo not given)
4. CO/N=C(\C(=O)N[C@@H]1C(=O)N2C(C(=O)O)=CCS[C@H]12)c1csc(N)n1

Result:
1. > 30 µM
2. > 30 µM
3. > 30 µM
4. > 30 µM

Give AC50 for each of the items listed below.
1. CCCCOc1ccc(C(=O)CCN2CCCCC2)cc1
2. C/C=C(/C(=C/C)c1ccc(O)cc1)c1ccc(O)cc1

Result:
1: > 10 µM; 2: > 10 µM
